Tgt: GST-Nv-NF-kB (Ser allele) (Nematostella vectensis, UniProt A7UNT2 2-411)
Sequence: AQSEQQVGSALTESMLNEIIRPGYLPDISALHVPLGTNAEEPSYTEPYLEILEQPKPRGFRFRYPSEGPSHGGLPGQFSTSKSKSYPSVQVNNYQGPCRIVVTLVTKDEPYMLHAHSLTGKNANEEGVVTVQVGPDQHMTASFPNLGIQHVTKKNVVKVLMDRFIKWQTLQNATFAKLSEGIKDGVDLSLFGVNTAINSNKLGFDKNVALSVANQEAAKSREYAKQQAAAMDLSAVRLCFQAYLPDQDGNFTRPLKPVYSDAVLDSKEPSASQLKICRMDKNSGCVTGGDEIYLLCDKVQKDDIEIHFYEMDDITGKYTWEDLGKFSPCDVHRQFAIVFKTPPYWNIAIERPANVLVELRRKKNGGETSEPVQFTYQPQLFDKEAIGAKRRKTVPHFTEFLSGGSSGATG
Test description: protein-binding microarray (PBM); PBM: ~300 nM protein, 6 mM HEPES pH 7.8, 80 mM KCl, 0.5 mM EDTA, 0.5 mM EGTA, 6% glycerol, 35 ng/ul poly-dIdC, 1% milk, 1 h, room temperature; Ap Aiptasia and Nv Nematostella (sea anemones) / Co Capsaspora / Aq Amphimedon (sponge) / Dm Drosophila / Hu human; RHD is the Rel homology domain; high values mean tight binding
Test settings: dsDNA, one strand shown
# strict inequality: binding signal < 7 z-score yields 1.0, everything else yields 0.0

Polymer sequence: CCGATTAACATCAATTCCCCCCCTGATGTTAATCGGGTCTTGATTCGCTTGACGCTGCTG
Discrete label: 0.0
//
Polymer sequence: CCGATTAACATCAGGGGATTTTATGATGTTAATCGGGTCTTGATTCGCTTGACGCTGCTG
Discrete label: 0.0
//
Polymer sequence: CCGATTAACATCAAGGGGGTTTCTGATGTTAATCGGGTCTTGATTCGCTTGACGCTGCTG
Discrete label: 0.0

Hi there! Is binding signal for `CCGATTAACATCACCGTTTCCCCTGATGTTAATCGGGTCTTGATTCGCTTGACGCTGCTG` below 7 z-score, do you know?
0.0

Entry to check: `CCGATTAACATCAACCTCCCCCCTGATGTTAATCGGGTCTTGATTCGCTTGACGCTGCTG`
1.0
